Numbers sourced from patent US4845123A.

Listing: Plasma concentration of the 60 kd protein at 21 days post-treatment with PAH of selected molecules
Test system: 60 kd oncofetal protein
test-settings: rat, in vivo, ip
assay-readout: Plasma concentration of the 60 kd protein at 21 days post-treatment with PAH

{"molecule": "Cc1c2ccccc2c(C)c2c1ccc1ccccc12 [7,12-Dimethylbenz[a]anthracene, 7,12-dimethylbenz[a]anthracene]", "val": 6.42}
{"molecule": "c1ccc2c(c1)c1cccc3ccc4cccc2c4c31 [Benzo[e]pyrene]", "val": 3.37}
{"molecule": "Cc1c2ccccc2c(C)c2c1ccc1ccc(F)cc12 [2-Fluoro-7,12-dimethylbenz[a]anthracene]", "val": 0.0}
{"molecule": "c1ccc2c(c1)cc1ccc3cccc4ccc2c1c34 [Benzo[a]pyrene]", "val": 7.73}
{"molecule": "Cc1ccc2cc3c(ccc4ccccc43)c3c2c1CC3 [3-Methylcholanthrene, 3-methyl-1,2-dihydrobenz[j]aceanthrylene]", "val": 6.82}
{"molecule": "c1ccc2cc3ccccc3cc2c1", "val": 0.0}
{"molecule": "c1ccc2cc3c(ccc4ccccc43)cc2c1 [Benz[a]anthracene]", "val": 4.92}
{"molecule": "c1cc2ccc3cccc4ccc(c1)c2c34", "val": 0.0}
